Target: T1, Rap^105 labelled through its His tag (MST) (Bacillus phage phi105)
T1 chain: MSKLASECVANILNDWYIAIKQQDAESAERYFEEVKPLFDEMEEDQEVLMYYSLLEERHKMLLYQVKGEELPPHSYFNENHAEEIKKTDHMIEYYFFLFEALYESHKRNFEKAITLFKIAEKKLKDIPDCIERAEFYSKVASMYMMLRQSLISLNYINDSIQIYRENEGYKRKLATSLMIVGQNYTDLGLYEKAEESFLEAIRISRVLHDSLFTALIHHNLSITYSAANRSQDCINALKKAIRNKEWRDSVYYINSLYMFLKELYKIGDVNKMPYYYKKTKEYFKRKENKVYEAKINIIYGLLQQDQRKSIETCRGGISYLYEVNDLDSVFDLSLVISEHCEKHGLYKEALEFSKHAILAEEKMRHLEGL
Assay: MST

binder: ERPVGT
EC50 (nM): 38.2
